# Assay Protocol: Cell Viability - LYMP1-003 - Assay at 40 hr (AID 964); note: nearly all actives have a fitted effect of over 60% in size; note: potency is the fitted concentration of half-maximal effect
# Experimental Context: LYMP1-003 lymphoblastoid viability; series mostly up to 92.2 µM
Results filed as inconclusive are left out. Activity calls are given as the source filed them. Calls come from the whole dose curve; as a rule, active = well fitted cell-killing curve with a large enough effect; inconclusive = small, poorly fitted or top-dose-only effect; inactive = flat fitted curve, though single readings scatter.
Readout: Potency

See these solved cases before continuing.
[
  {
    "Compound": "O=C1NC(=O)C(c2ccccc2)(c2ccccc2)N1",
    "Potency": "inactive"
  },
  {
    "Compound": "O=c1c(O)c(-c2ccc(O)cc2)oc2cc(O)cc(O)c12",
    "Potency": "inactive"
  },
  {
    "Compound": "CCCCC1C(=O)N(c2ccccc2)N(c2ccccc2)C1=O",
    "Potency": "inactive"
  },
  {
    "Compound": "CC/C(=C(\\c1ccccc1)c1ccc(OCCN(C)C)cc1)c1ccccc1",
    "Potency": "50.1 µM (active)"
  },
  {
    "Compound": "CC1=C(/C=C/C(C)=C/C=C/C(C)=C/C(=O)Nc2ccc(O)cc2)C(C)(C)CCC1",
    "Potency": "39.8 µM (active)"
  }
]

For this compound ( CN(C)CCC(c1ccccc1)c1ccccn1 (configuration not stated) ), measured Potency is inactive

For this compound ( O=C(O)Cc1cccc2ccccc12 ), measured Potency is inactive
